Source: patent US9399635B2

test: Evaluation of in vivo pharmacokinetics (blood and brain concentrations, LC-MS/MS); conditions: male, rat; SD rats, oral 50 mg/kg bw, 60 min, brain; read-out: brain concentration p.o. 60 min
parameter_measured: concentration at 60 min (ng/mL)
// units = ng/mL; emit number, no label

COc1cc(OCc2ccccn2)ccc1/C=C/c1cc(/C=C/c2ccc3cc[nH]c3c2)[nH]n1	8.54

// next item, concentration at 60 min requested
Inquiry: Tell me the measured concentration at 60 min of "COc1cc(OCc2ccccn2)ccc1/C=C/C(=O)CC(=O)/C=C/c1ccc2cc[nH]c2c1" , please.
Reply text: 0

###

target: Aβ 1-42 (Homo sapiens); construct: Aβ 1-42 (Peptide Institute, Inc.) was dissolved in 0.3% ammonia water; purchased Peptide Institute, Inc; assay: Determination of Aβ aggregation inhibitory activity (thioflavin T fluorescence); type: biochemical; settings: Aβ 1-42, 37° C. for 24 hours, thioflavin T; read-out: IC50 (μM) Test example 3 (Aβ aggregation inhibitory activity)
Sequence (P05067 672-713): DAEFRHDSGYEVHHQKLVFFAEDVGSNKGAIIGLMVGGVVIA
parameter_measured: IC50

Guide cases for IC50, answers given:
COc1cc(OCc2ccccc2)ccc1/C=C/c1cc(/C=C/c2ccc3cc[nH]c3c2)[nH]n1	> 10 µM
COc1cc(OCc2ccccn2)ccc1/C=C/c1cc(/C=C/c2ccc3c(c2)OCO3)[nH]n1	> 10 µM

Shifting focus to the molecule that follows.
Inquiry: // returns reported IC50 for input "COc1cc(OCc2ccccn2)ccc1/C=C/c1cc(/C=C/c2ccc3c(c2)OCCO3)[nH]n1"
Reply text: > 10 µM

###

The reader will find reported melting point values listed item by item below.

Example compounds with recorded melting point:
COc1cc(OCc2ccncc2)ccc1/C=C/c1cc(/C=C/c2cccc3[nH]ccc23)[nH]n1	207 to 215 °C
COc1cc(OCc2ccccn2)ccc1/C=C/c1cc(/C=C/c2ccc3nccnc3c2)[nH]n1	205 to 213 °C
COCCOc1ccc(/C=C/c2cc(/C=C/c3ccc4cc[nH]c4c3)[nH]n2)c(OC)c1	90 to 96 °C
COc1c(/C=C/c2cc(/C=C/c3ccc4cc[nH]c4c3)[nH]n2)cccc1OCc1ccccn1	109 to 114 °C
COc1cc(OCc2cccnc2)ccc1/C=C/c1cc(/C=C/c2cc3ccccc3[nH]2)[nH]n1	126 to 138 °C

Next up:
Inquiry: Which value of melting point has been reported for "COc1ccc(/C=C/c2cc(/C=C/c3ccc4cc[nH]c4c3)[nH]n2)c(OC)c1" in the records?
Reply text: 121 to 133 °C

###

We begin with a simple list: items and their reported IC50.
molecular target: recombinant three-repeat microtubule-binding domain (3R-MBD) of tau protein (Homo sapiens); experiment: Determination of tau aggregation inhibitory activity (heparin-induced, thioflavin T fluorescence; electron microscope); type: biochemical; details: 3R-MBD tau 10 μM, heparin 10 μM, 37° C. for 16 hours, thioflavin T; read-out: IC50 (μM) Test example 1 (tau aggregation inhibitory activity)
Sequence (P10636 186-279 isoform P10636-2 limits assumed): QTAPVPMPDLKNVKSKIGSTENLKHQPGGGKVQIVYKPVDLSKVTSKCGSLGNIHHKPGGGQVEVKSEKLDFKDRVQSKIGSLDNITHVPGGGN
// units = µM; emit number, no label

CN1CCCN(c2ccc(/C=C/c3cc(/C=C/c4ccc5cc[nH]c5c4)[nH]n3)c(Br)c2)CC1	1.46
COc1cc(OCc2ccccn2)ccc1/C=C/c1cc(/C=C/c2ccc3[nH]cnc3c2)[nH]n1	1.57

Inquiry: # get_value(readout='IC50', item= COc1cc(OCC2CCCO2)ccc1/C=C/c1cc(/C=C/c2ccc3cc[nH]c3c2)[nH]n1 (stereo not shown) )
Reply text: 1.49

Inquiry: IC50 lookup needed for "COc1cc(OCc2ccccn2)ccc1/C=C/c1cc(/C=C/c2ccc3cc[nH]c3c2)[nH]n1" , thanks.
Reply text: 0.92

###

target: recombinant three-repeat microtubule-binding domain (3R-MBD) of tau protein (Homo sapiens); test: Determination of tau aggregation inhibitory activity (heparin-induced, thioflavin T fluorescence; electron microscope); assay type: biochemical; conditions: 3R-MBD tau 10 μM, heparin 10 μM, 37° C. for 16 hours, thioflavin T; read-out: IC50 (μM) Test example 1 (tau aggregation inhibitory activity)
parameter_measured: IC50

Consider the following illustrative entries.
COc1cc(OCc2ccccc2)ccc1/C=C/c1cc(/C=C/c2ccc3cc[nH]c3c2)[nH]n1 [Example 63]	1.37 µM
COc1cc(OCCN2CCOCC2)ccc1/C=C/c1cc(/C=C/c2ccc3cc[nH]c3c2)[nH]n1 [Example 27]	1.28 µM
CCN(CC)c1ccc(/C=C/c2cc(/C=C/c3ccc4cc[nH]c4c3)[nH]n2)c(OCCN2CCOCC2)c1 [Example 98]	1.29 µM

Inquiry: What value of IC50 on recombinant three-repeat microtubule-binding domain (3R-MBD) of tau protein (Homo sapiens) does COc1cc(OCc2nccs2)ccc1/C=C/c1cc(/C=C/c2ccc3cc[nH]c3c2)[nH]n1 [Example 82] have?
Reply text: 1.04 µM

Inquiry: Enter reported IC50 observed with recombinant three-repeat microtubule-binding domain (3R-MBD) of tau protein (Homo sapiens) for CN1CCN(c2ccc(/C=C/c3cc(/C=C/c4ccc5cc[nH]c5c4)[nH]n3)cc2)CC1 [Example 102]
Reply text: 1.46 µM

Inquiry: # returns recorded IC50 (system: recombinant three-repeat microtubule-binding domain (3R-MBD) of tau protein (Homo sapiens)) for COc1cc(OCc2ccccn2)ccc1/C=C/c1cc(/C=C/c2ccc3c(c2)OCO3)[nH]n1 [Example 77]
Reply text: 1.26 µM
